target-or-system: Free fatty acid receptor 1 (Homo sapiens)
Sequence (O14842 whole entry): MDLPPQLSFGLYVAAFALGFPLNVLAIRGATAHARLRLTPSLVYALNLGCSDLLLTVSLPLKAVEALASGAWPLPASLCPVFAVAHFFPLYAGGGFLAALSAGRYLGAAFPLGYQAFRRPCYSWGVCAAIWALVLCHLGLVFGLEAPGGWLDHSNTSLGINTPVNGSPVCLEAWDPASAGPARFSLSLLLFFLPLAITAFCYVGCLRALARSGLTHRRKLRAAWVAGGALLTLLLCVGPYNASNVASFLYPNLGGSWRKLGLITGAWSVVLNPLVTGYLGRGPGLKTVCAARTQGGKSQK
experiment-summary: Agonist activity at human GPR40 expressed in CHO cells incubated for 60 mins by FLIPR based Ca2+ mobilization assay relative to gamma-linolenic acid
Assay type: functional, cell-based
condition-description: filed as agonist
Below, each of the compounds is paired with its reported Emax value.
// units = %; emit number, no label

Use these answered entries as a reference point.
# compound, value-units, Emax
rows = [
    ("COc1ccc(C(=O)N(CC(C)(C)C)c2cccc(C)n2)c(N2CCC(COc3cccc(C(CC(=O)O)C4CC4)c3)CC2)c1 (centres undefined)", "%", 109),
    ("COc1ccc(CN(C)CC(C)C)c(N2CCC(COc3cccc(C(CC(=O)O)C4CC4)c3)CC2)c1 (centres undefined)", "%", 110),
    ("COc1ccc(F)c(-c2ccc(COc3cccc([C@@H](CC(=O)O)C4CC4)c3)nc2CC(C)(C)C)c1", "%", 66),
]

Consider the additional compound presented here.
Lookup: # query: Emax of entry COc1ccc(CCCC(C)(C)C)c(N2CCC(COc3cccc(C(CC(=O)O)C4CC4)c3)CC2)c1 (centres undefined)
Found: 106

* * *

experiment-summary: Total clearance in Sprague-Dawley rat at 0.1 mg/kg, iv by high-performance LC-tandem MS analysis
Assay type: ADME, organism-based
condition-description: in vivo
result-type: clearance (mL/min/kg)
// units = mL/min/kg; emit number, no label

Lookup: # query: clearance of entry COc1ccc(C(=O)N(CC(C)(C)C)c2cccc(C)n2)c(N2CCC(COc3cc([C@@H](CC(=O)O)C4CC4)ccn3)CC2)c1
Found: 24.6

* * *

experiment-summary: Volume of distribution at steady state in ICR mouse at 0.1 mg/kg, iv by high-performance LC-tandem MS analysis
Assay type: ADME, organism-based
condition-description: in vivo, read-out: Vdss
result-type: Vd (L/kg)
// units = L/kg; emit number, no label

Lookup: # query: Vd of entry COc1ccc(C(=O)N(CC(C)(C)C)c2cccc(C)n2)c(N2CCC(COc3cc([C@@H](CC(=O)O)C4CC4)ccn3)CC2)c1
Found: 1.35

* * *

System: HepG2
experiment-summary: Cytotoxicity in human HepG2 cells assessed as caspase-3/7 activity level at 30 uM by Caspase-GloTM 3/7 assay relative to staurosporine
Assay type: cell-based
condition-description: hepg2, 24 h, time 1 day
result-type: Activity (%)
// units = %; emit number, no label

# molecule, value-units, Activity
rows = [
    ("COc1cccc(N2CCC(COc3cccc(C(CC(=O)O)C4CC4)c3)CC2)c1 (stereo not drawn)", "%", -1.1),
    ("COc1ccc(CCC(C)(C)O)c(N2CCC(COc3cccc(C(CC(=O)O)C4CC4)c3)CC2)c1 (stereo not drawn)", "%", 0.1),
]

Consider the additional molecule presented here.
Lookup: # query: Activity of entry COc1ccc(C(=O)N(C)CC(C)(C)C)c(N2CCC(COc3cccc(C(CC(=O)O)C4CC4)c3)CC2)c1 (stereo not drawn)
Found: 6.6
